Origin of values: paper PMC11542179

molecular target: MSI1 RRM1-RRM2 tandem (Homo sapiens, UniProt O43347 1-200); assay: SPR; KD1, bivalent analyte model; SPR, 3'-biotinylated RNA immobilized on dextran sensor chip, protein as analyte; running buffer, salt, pH and temperature not in the material; conditions: protein: recombinant; label: 3'-biotin; linear
Sequence (O43347 1-200): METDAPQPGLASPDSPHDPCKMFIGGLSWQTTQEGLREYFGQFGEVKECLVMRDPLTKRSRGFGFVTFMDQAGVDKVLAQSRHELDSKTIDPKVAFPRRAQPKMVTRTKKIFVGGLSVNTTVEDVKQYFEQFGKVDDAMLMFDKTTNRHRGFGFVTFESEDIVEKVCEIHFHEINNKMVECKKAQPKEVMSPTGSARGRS
EXPERIMENTAL_ENDPOINT: Kd (nM)
Report the value in nM with no unit label.

Determine from records and report Kd for UUGUCAGUUACCCCUU (ssRNA) [RNA-L1a]
1410
